Reference for the values: patent US20240400638A1

- assay.target: T1, human RXFP1 (human, UniProt Q9HBX9 1-757)
- T1 sequence (looked up): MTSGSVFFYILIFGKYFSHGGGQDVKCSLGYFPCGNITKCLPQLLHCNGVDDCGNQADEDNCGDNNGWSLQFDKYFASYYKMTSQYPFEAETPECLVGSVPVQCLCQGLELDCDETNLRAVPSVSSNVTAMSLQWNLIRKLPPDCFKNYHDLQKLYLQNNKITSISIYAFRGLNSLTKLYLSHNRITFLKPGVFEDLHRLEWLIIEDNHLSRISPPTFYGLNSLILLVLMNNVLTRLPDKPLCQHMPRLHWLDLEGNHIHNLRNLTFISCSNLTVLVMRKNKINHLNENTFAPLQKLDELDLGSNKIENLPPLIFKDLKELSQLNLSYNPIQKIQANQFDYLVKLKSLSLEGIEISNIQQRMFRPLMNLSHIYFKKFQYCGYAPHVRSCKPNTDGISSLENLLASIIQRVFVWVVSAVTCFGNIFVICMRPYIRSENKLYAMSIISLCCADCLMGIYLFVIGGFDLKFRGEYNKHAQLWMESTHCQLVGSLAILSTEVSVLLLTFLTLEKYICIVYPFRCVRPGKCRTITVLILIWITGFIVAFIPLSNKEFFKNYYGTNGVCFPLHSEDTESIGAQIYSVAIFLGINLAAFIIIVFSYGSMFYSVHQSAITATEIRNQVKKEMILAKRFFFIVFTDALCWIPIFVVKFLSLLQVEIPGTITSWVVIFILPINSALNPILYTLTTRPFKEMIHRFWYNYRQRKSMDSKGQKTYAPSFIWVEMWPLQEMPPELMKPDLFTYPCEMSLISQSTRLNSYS
- method.description: cell-based or functional assay
Numbered stars: 1 amine (or outer) side, 2 acyl side, 3 side chain; on linkers, the order of the positions; unused ones are H or OH. Square brackets hold non-standard residues; d marks the D form. Side chains are listed from the residue outwards. * marks the point of attachment. TTDS = 4-[3-[2-[2-(3-aminopropoxy)ethoxy]ethoxy]propylamino]-4-oxo-butanoyl; γGlu = O=C(O)[C@H](CCC(=O)[*:2])N[*:1]; Palmitoyl = CCCCCCCCCCCCCCCC(=O)*; αMeK = C[C@](N)(CCCCN)C(=O)O; hLys = NCCCCC[C@H](N)C(=O)O; Aib = CC(C)(N)C(=O)O
metric.name: EC50 (nM), OVCAR 5 cells (cAMP)

Worked examples follow.
Ac-LEGREKVRAQI[Aib][Aib]EGK([TTDS-TTDS-TTDS-γGlu-γGlu-γGlu-Palmitoyl])STFS[αMeK]RAK(Ac)-NH2 [Relaxin peptide analogue of SEQ ID NO: 48]    0.45
Ac-LEGRERVRAK(Ac)I[Aib][Aib]EGK([TTDS-TTDS-TTDS-γGlu-γGlu-γGlu-Palmitoyl])STWS[Aib]RRK(Ac)-NH2 [Relaxin peptide analogue of SEQ ID NO: 31]    0.19

I. Ac-LEGREQVRAK(Ac)I[Aib][Aib]EGK([TTDS-TTDS-TTDS-γGlu-γGlu-γGlu-Palmitoyl])STFS[αMeK]RAK(Ac)-NH2 [Relaxin peptide analogue of SEQ ID NO: 25]
II. Ac-LEGREKVRAK(Ac)I[Aib][Aib]EGK([TTDS-TTDS-γGlu-γGlu-γGlu-Palmitoyl])STWS[dK]RKK(Ac)-NH2 [Relaxin peptide analogue of SEQ ID NO: 18]
III. Ac-LEGREKVRAK(Ac)I[Aib][Aib]EGK([TTDS-TTDS-TTDS-γGlu-γGlu-γGlu-Palmitoyl])STFS[hLys]RAK(Ac)-NH2 [Relaxin peptide analogue of SEQ ID NO: 88]
Falling order of EC50 (nM), OVCAR 5 cells (cAMP), please. Response field: labels, in requested order. I, II, III
